molecular target: Neuronal acetylcholine receptor; alpha4/beta2 (Homo sapiens, UniProt P17787+P43681); assay: Agonist activity at high-sensitivity human alpha4beta2 nAChR expressed in SH-EP1 cells by [86Rb+] ion efflux assay relative to control; assay type: cell-based
Item-by-item account of Efficacy
Output spec: scalar in %, unitless text.

Answered examples (3):
[
  {
    "ENTRY_SMILES": "CCOCC[C@H]1C[C@@H]1c1cncc(N2C[C@H]3CNC[C@H]3C2)c1.O=C(O)C(F)(F)F",
    "UNIT_NAME": "%",
    "Efficacy": 88
  },
  {
    "ENTRY_SMILES": "COCC[C@H]1C[C@@H]1c1cncc(N2C[C@H]3CNC[C@H]3C2)c1.O=C(O)C(F)(F)F",
    "UNIT_NAME": "%",
    "Efficacy": 76
  },
  {
    "ENTRY_SMILES": "O=C(O)C(F)(F)F.OCC[C@H]1C[C@@H]1c1cncc(N2C[C@H]3CNC[C@H]3C2)c1",
    "UNIT_NAME": "%",
    "Efficacy": 100
  }
]

*Q* Lab note: need Efficacy for FCC[C@H]1C[C@@H]1c1cncc(N2C[C@H]3CNC[C@H]3C2)c1.O=C(O)C(F)(F)F on Neuronal acetylcholine receptor; alpha4/beta2 (Homo sapiens, UniProt P17787+P43681), anyone have it?
*A* 110
